# method-notes: Clearance in Han Wistar rat at 1 umol/kg, iv
# Format: ADME, organism-based
# study-conditions: in vivo
measurement-label: clearance (mL/min/kg)

Nc1nc(-c2ccc(OCC3CCOC3)c(OC(F)(F)F)c2)c(Cl)c(=O)[nH]1 (stereo not drawn): 35

(A) Nc1nc(-c2ccc(OCC3CCOC3)c(C(F)(F)F)c2)c(Cl)c(=O)[nH]1 (stereo not drawn)
(B) CC(C)COc1ccc(-c2nc(N)[nH]c(=O)c2C#N)cc1C#N
Prompt line: Please state the entry with greater clearance among A and B . The response must carry the label of the picked entry.
Response line: A
(A: 15 mL/min/kg, B: 1.8 mL/min/kg)

---

# method-notes: Solubility of the compound in phosphate buffer at pH 7.4
measurement-label: solubility (µM)

Some compounds with recorded solubility:
Nc1nc(-c2cccc(OC(F)(F)F)c2)cc(=O)[nH]1: 330
N#Cc1cc(-c2nc(N)[nH]c(=O)c2Cl)ccc1OCC1CCOC1 (stereo unspecified): 41
CC(C)COc1ccc(-c2nc(N)[nH]c(=O)c2C#N)cc1C#N: 14
Nc1nc(-c2cccc(C(F)(F)F)c2)cc(=O)[nH]1: 36
CC(C)COc1ccc(-c2nc(N)[nH]c(=O)c2C#N)cc1C(F)(F)F: 1.2

(a) Cc1cc(C#N)cc(-c2cc(=O)[nH]c(N)n2)c1
(b) CC(C)(C)COc1ccc(-c2cc(=O)[nH]c(N)n2)cc1
(c) N#Cc1c(-c2ccc(OCC3CCOC3)c(OC(F)(F)F)c2)nc(N)[nH]c1=O (stereo unspecified)
Prompt line: # ascending order, key=solubility Reply format: the labels, ordered as requested.
Response line: b, c, a
(b: 3.1 µM, c: 86 µM, a: 350 µM)

(I) CNc1nc(-c2ccc(OCC(C)C)c(C#N)c2)c(C#N)c(=O)[nH]1
(II) CC(C)COc1ccc(-c2cc(=O)[nH]c(N)n2)cc1
Prompt line: Please state the entry with greater solubility among I and II . The response must carry the label of the picked entry.
Response line: I
(I: 37 µM, II: 23 µM)

---

# method-notes: Cmax in Han Wistar rat at 6 umol/kg, po
# Type: ADME, organism-based
# Parameters: dose 6 umol/kg, route oral
# study-conditions: in vivo
measurement-label: Cmax (nM)

CC(C)COc1ccc(-c2nc(N)[nH]c(=O)c2C#N)cc1C#N: 70

(A) Nc1nc(-c2ccc(OCC3CCOC3)c(OC(F)(F)F)c2)c(Cl)c(=O)[nH]1 (stereo not drawn)
(B) Nc1nc(-c2ccc(OCC3CCOC3)c(C(F)(F)F)c2)c(Cl)c(=O)[nH]1 (stereo not drawn)
Prompt line: Please state the entry with greater Cmax among A and B . The response must carry the label of the picked entry.
Response line: B

---

# method-notes: Apparent permeability across apical side to basolateral side in human Caco2 cells
# study-conditions: Caco-2
measurement-label: Papp A→B (×10⁻⁶ cm/s)

(a) N#Cc1c(-c2ccc(OCC3CCOC3)c(OC(F)(F)F)c2)nc(N)[nH]c1=O (stereo not given)
(b) CC(C)(C)COc1ccc(-c2nc(N)[nH]c(=O)c2C#N)cc1OC(F)(F)F
Prompt line: Please state the entry with greater Papp A→B among a and b . The response must carry the label of the picked entry.
Response line: b

(I) Nc1nc(-c2ccc(OCC3CCOC3)c(OC(F)(F)F)c2)c(Cl)c(=O)[nH]1 (stereo not given)
(II) N#Cc1cc(-c2nc(N)[nH]c(=O)c2C#N)ccc1OCC1CC1
Prompt line: Please state the entry with greater Papp A→B among I and II . The response must carry the label of the picked entry.
Response line: I
(I: 6.4 ×10⁻⁶ cm/s, II: 0.1 ×10⁻⁶ cm/s)
